system: Chlamydomonas reinhardtii, Nile Red lipid fluorescence, 72 h; assay: compounds raising TAG storage in Chlamydomonas – qHTS, Chlamydomonas reinhardtii, dose response (AID 1159536)
Records with an inconclusive call do not appear. Calls of active or inactive are those of the source. No rule for the calls is given here.
Possible outcomes: t (active), f (inactive)

[
  {
    "chem-smiles": "CCc1ccc(CN2CCN(c3ccccc3C)CC2)cc1",
    "test-target": "Chlamydomonas reinhardtii, Nile Red lipid fluorescence, 72 h",
    "class-label": "f"
  },
  {
    "chem-smiles": "O=[N+]([O-])c1ccc(CN2CCN(Cc3ccccc3)CC2)cc1",
    "test-target": "Chlamydomonas reinhardtii, Nile Red lipid fluorescence, 72 h",
    "class-label": "t"
  },
  {
    "chem-smiles": "Cc1cc(C)c(S(=O)(=O)N2CCN(C)CC2)cc1Br",
    "test-target": "Chlamydomonas reinhardtii, Nile Red lipid fluorescence, 72 h",
    "class-label": "t"
  },
  {
    "chem-smiles": "Cc1cc(Br)ccc1OCCCCN1CCN(C)CC1",
    "test-target": "Chlamydomonas reinhardtii, Nile Red lipid fluorescence, 72 h",
    "class-label": "t"
  },
  {
    "chem-smiles": "CCCCOc1ccc(CN2CCN(c3ccc([N+](=O)[O-])cc3)CC2)cc1",
    "test-target": "Chlamydomonas reinhardtii, Nile Red lipid fluorescence, 72 h",
    "class-label": "t"
  },
  {
    "chem-smiles": "O=[N+]([O-])c1ccc(OCCCCN2CCOCC2)cc1",
    "test-target": "Chlamydomonas reinhardtii, Nile Red lipid fluorescence, 72 h",
    "class-label": "t"
  }
]

* * *

tested on: Chlamydomonas reinhardtii, Nile Red lipid fluorescence, 72 h; assay: compounds raising TAG storage in Chlamydomonas – qHTS, Chlamydomonas reinhardtii, dose response (AID 1159536)
Records with an inconclusive call do not appear. Activity calls are given as the source filed them. No rule for the calls is given here.

[
  {
    "compound": "CCC1CCC(N2CCN(CC)CC2)CC1 (stereo unspecified)",
    "EC50": "2.48 µM"
  },
  {
    "compound": "CCc1ccc(OCCOCCN2CCOCC2)cc1",
    "EC50": "10.1 µM"
  },
  {
    "compound": "COc1cc(CN2CCN(Cc3ccccc3)CC2)cc(OC)c1",
    "EC50": "8.98 µM"
  },
  {
    "compound": "CCN(CC(O)COc1ccc(Br)cc1)C1CCCCC1 (stereo unspecified)",
    "EC50": "10.2 µM"
  },
  {
    "compound": "Cc1ccc2nc(NC(=O)C3CC3)sc2c1",
    "EC50": "15.1 µM (inactive)"
  },
  {
    "compound": "Cc1ccccc1OCCCCN1CCOCC1",
    "EC50": "9.79 µM"
  },
  {
    "compound": "CC(C)(Oc1ccc(Cl)cc1)C(=O)N1CCN(c2ccc(F)cc2)CC1",
    "EC50": "2.13 µM (inactive)"
  },
  {
    "compound": "C1=CC2CC1CC2CN1CCN(Cc2ccco2)CC1 (stereo unspecified)",
    "EC50": "2.52 µM"
  },
  {
    "compound": "C1=CC2CC1CC2CN1CCN(C2CCC(c3ccccc3)CC2)CC1 (stereo unspecified)",
    "EC50": "1.46 µM"
  },
  {
    "compound": "COc1ccc(CNCc2ccc(C)cc2)c(OC)c1",
    "EC50": "9.94 µM (inactive)"
  },
  {
    "compound": "CN(CC(O)COc1ccc(F)cc1)C1CCCCC1 (stereo unspecified)",
    "EC50": "11.2 µM"
  },
  {
    "compound": "CS(=O)(=O)N1CCN(C2C3CC4CC(C3)CC2C4)CC1 (stereo unspecified)",
    "EC50": "4.68 µM"
  },
  {
    "compound": "CCN(CC)c1cc(C)nc(N)n1",
    "EC50": "2.53 µM (inactive)"
  },
  {
    "compound": "CCCCNc1cc(C)nc(N2CCOCC2)n1",
    "EC50": "13.1 µM"
  },
  {
    "compound": "O=[N+]([O-])c1ccc(C(O)CN2CCN(Cc3ccccc3)CC2)cc1 (stereo unspecified)",
    "EC50": "12.6 µM"
  },
  {
    "compound": "Cc1ccc(NC(=O)CSc2nnc(-c3ccc(Cl)cc3Cl)n2N)c(C)c1",
    "EC50": "2.46 µM (inactive)"
  },
  {
    "compound": "Cc1ccc(CN2CCN(CCO)CC2)cc1",
    "EC50": "16.1 µM"
  },
  {
    "compound": "Clc1ccc(OCCCCN2CCCC2)c(Br)c1",
    "EC50": "2.55 µM"
  },
  {
    "compound": "CC1CCCN(C(=O)COc2ccc(Cl)cc2)C1 (stereo unspecified)",
    "EC50": "1.26 µM"
  },
  {
    "compound": "COc1ccc(CN2CCN(CC3CC4C=CC3C4)CC2)cc1OC (stereo unspecified)",
    "EC50": "3.91 µM"
  },
  {
    "compound": "C=CCn1c(SCC(=O)O)nnc1-c1ccc([N+](=O)[O-])cc1",
    "EC50": "13.6 µM (inactive)"
  },
  {
    "compound": "CCN(Cc1ccccc1)C(=O)C1CCN(CCCc2ccccc2)CC1",
    "EC50": "1.3 µM"
  },
  {
    "compound": "CCOc1ccc(C2=CSC3=NCCN23)cc1",
    "EC50": "13.7 µM (inactive)"
  },
  {
    "compound": "C=CCNCC(=O)NC12CC3CC(CC(C3)C1)C2",
    "EC50": "2.81 µM"
  },
  {
    "compound": "O=S(=O)(c1ccc(Cl)c(Cl)c1Cl)N1CCN(c2ccc(F)cc2)CC1",
    "EC50": "0.0144 µM (inactive)"
  },
  {
    "compound": "COc1cc(C(=O)Nc2ccc(S(=O)(=O)Nc3ncccn3)cc2)cc(OC)c1OC",
    "EC50": "30.9 µM (inactive)"
  }
]

* * *

system: Chlamydomonas reinhardtii, Nile Red lipid fluorescence, 72 h; test: compounds raising TAG storage in Chlamydomonas – qHTS, Chlamydomonas reinhardtii, dose response (AID 1159536)
Results filed as inconclusive are left out. The source made the active and inactive calls. How the calls were made is not given here.
Possible outcomes: active, inactive

[
  {
    "compound": "Clc1ccc(Cl)c(OCCCCN2CCNCC2)c1",
    "class-label": "active"
  },
  {
    "compound": "C1=CC2CC1CC2CN1CCN(c2ccccc2)CC1 (configuration not stated)",
    "class-label": "active"
  },
  {
    "compound": "Cc1ccc(C(=O)Nc2ccc3oc(-c4ccncc4)nc3c2)cc1C",
    "class-label": "active"
  },
  {
    "compound": "Cc1ccc(OCCOCCN2CCOCC2)c([N+](=O)[O-])c1",
    "class-label": "active"
  },
  {
    "compound": "O=[N+]([O-])c1ccc(CN2CCN(C3CC4CCC3C4)CC2)cc1 (configuration not stated)",
    "class-label": "active"
  },
  {
    "compound": "COc1ccc(C(=O)c2ccc(N3CCN(C)CC3)c([N+](=O)[O-])c2)cc1",
    "class-label": "inactive"
  },
  {
    "compound": "Oc1ccccc1CNCCC12CC3CC(CC(C3)C1)C2",
    "class-label": "inactive"
  },
  {
    "compound": "c1ccc(CCc2nc(-c3ccncc3)no2)cc1",
    "class-label": "active"
  },
  {
    "compound": "CCc1ccc(CN2CCN(CC)CC2)cc1",
    "class-label": "active"
  },
  {
    "compound": "Oc1ccc(CN2CCN(c3ccccc3Cl)CC2)cc1",
    "class-label": "active"
  },
  {
    "compound": "COc1ccc(CNC2CCSC2)cc1 (configuration not stated)",
    "class-label": "active"
  },
  {
    "compound": "CN1CCN(c2ccc([N+](=O)[O-])c(N3CCCCC3)c2)CC1",
    "class-label": "active"
  }
]

* * *

test system: Chlamydomonas reinhardtii, Nile Red lipid fluorescence, 72 h; assay: compounds raising TAG storage in Chlamydomonas – qHTS, Chlamydomonas reinhardtii, dose response (AID 1159536)
Records with an inconclusive call do not appear. Activity calls are given as the source filed them. How the calls were made is not given here.

[
  {
    "molecule": "CN1CCCN(CC2=CC[C@H]3C[C@@H]2C3(C)C)CC1",
    "test-target": "Chlamydomonas reinhardtii, Nile Red lipid fluorescence, 72 h",
    "EC50": "10.1 µM"
  },
  {
    "molecule": "Cc1ccc(C(=O)Nc2ccc(Cl)cc2C)cc1C",
    "test-target": "Chlamydomonas reinhardtii, Nile Red lipid fluorescence, 72 h",
    "EC50": "16.6 µM (inactive)"
  },
  {
    "molecule": "Clc1cc(Br)ccc1OCCCN1CCOCC1",
    "test-target": "Chlamydomonas reinhardtii, Nile Red lipid fluorescence, 72 h",
    "EC50": "4.43 µM"
  },
  {
    "molecule": "Cc1ccc(C(=O)c2ccc(N3CCN(C)CC3)c([N+](=O)[O-])c2)cc1",
    "test-target": "Chlamydomonas reinhardtii, Nile Red lipid fluorescence, 72 h",
    "EC50": "2.59 µM (inactive)"
  },
  {
    "molecule": "CC1CCCCN1S(=O)(=O)c1ccc(NC(=O)c2ccc(Cl)cc2Cl)cc1 (configuration not stated)",
    "test-target": "Chlamydomonas reinhardtii, Nile Red lipid fluorescence, 72 h",
    "EC50": "2.56 µM (inactive)"
  },
  {
    "molecule": "COCCNS(=O)(=O)c1cc(Cl)ccc1OC",
    "test-target": "Chlamydomonas reinhardtii, Nile Red lipid fluorescence, 72 h",
    "EC50": "2.98 µM (inactive)"
  },
  {
    "molecule": "O=[N+]([O-])c1ccccc1CN1CCN(CC2CC3C=CC2C3)CC1 (configuration not stated)",
    "test-target": "Chlamydomonas reinhardtii, Nile Red lipid fluorescence, 72 h",
    "EC50": "11.7 µM (inactive)"
  },
  {
    "molecule": "C(=C\\c1ccccc1)/CN1CCN(C2CCc3ccccc3C2)CC1 (configuration not stated)",
    "test-target": "Chlamydomonas reinhardtii, Nile Red lipid fluorescence, 72 h",
    "EC50": "9.92 µM"
  },
  {
    "molecule": "C/C(=C\\c1ccccc1)CN1CCN(C)CC1",
    "test-target": "Chlamydomonas reinhardtii, Nile Red lipid fluorescence, 72 h",
    "EC50": "1.01 µM"
  },
  {
    "molecule": "Cc1ccc(N2CCN(C3CCCCCC3)CC2)cc1",
    "test-target": "Chlamydomonas reinhardtii, Nile Red lipid fluorescence, 72 h",
    "EC50": "0.649 µM"
  },
  {
    "molecule": "C(=C\\c1ccccc1)/CN1CCN(C2C3CC4CC(C3)CC2C4)CC1 (configuration not stated)",
    "test-target": "Chlamydomonas reinhardtii, Nile Red lipid fluorescence, 72 h",
    "EC50": "3.99 µM"
  },
  {
    "molecule": "COc1ccc(CN2CCN(c3ncnc4sc5c(c34)CCCC5)CC2)cc1",
    "test-target": "Chlamydomonas reinhardtii, Nile Red lipid fluorescence, 72 h",
    "EC50": "4.83 µM"
  }
]
